Hello, the source for this data is the MegaScale stability set (Tsuboyama et al. 2023), in case you need it.

B1: 5KPH (parent)
chain: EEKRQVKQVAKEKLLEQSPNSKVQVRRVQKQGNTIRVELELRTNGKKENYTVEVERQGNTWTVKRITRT

Variants of: B1
protocol.description: folding stability dG (cDNA display proteolysis); higher = more stable
measurement.conditions: PBS, room temperature
test.readout: folding stability dG (kcal/mol)
Write down the numeric answer in kcal/mol and omit the unit.

# count of solved cases: 2
• EEKRQVKQVAKEKLGEQSPNSKVQVRRVQKQGNTIRVELELRTNGKKENYTVEVERQGNTWTVKRITRT [L15G] = 2.53
• EEKRQVKQVAKEKLLEQSPNSKVQVRRVQKQGNTIGVELELRTNGKKENYTVEVERQGNTWTVKRITRT [R36G] = 2.54

Please examine the following record next.
// folding stability dG lookup, key: EEKRQVKQVAKEKLLEQSPNSKVQVRRVQKQGNPIRVELELRTNGKKENYTVEVERQGNTWTVKRITRT [T34P]
2.41
